Test system: MDCK p60AmotL2-inducible + doxycycline (p60AmotL2 expressing)
Assay: drug sensitivity score (DSS) from 5-dose viability curve (DSS (area-based score, 0 = no response)); higher = more sensitive (stronger viability inhibition); extreme values may be limits of the assay
Settings: doxycycline: 10 ng/mL; 72 h
Classify as follows. Reported drug sensitivity score greater than or equal to 10: true. Reported drug sensitivity score below: false.

Input: Determine whether this molecule has drug sensitivity score no lower than 10: COc1cc(Nc2c(C#N)cnc3cc(OCCCN4CCN(C)CC4)c(OC)cc23)c(Cl)cc1Cl
Output: true

Input: Next record, please: NC(=S)N/N=C/c1ncccc1N
Output: false

Input: Also C=CC(=O)Nc1cccc(Oc2nc(Nc3ccc(N4CCN(C)CC4)cc3)nc3ccsc23)c1 ?
Output: false

Input: Next: Cn1nnc2c(C(N)=O)ncn2c1=O [Temozolomide]
Output: false

Input: Next entry: CC(C)Oc1ccc(C(=O)N[C@H](CNC(=O)CN(C)C)Cc2ccc(-c3cn4cccc([C@H](C)O)c4n3)cc2)cc1Cl
Output: true

Input: Okay, and CO[C@@]12[C@H](COC(N)=O)C3=C(C(=O)C(C)=C(N)C3=O)N1C[C@@H]1N[C@@H]12 ?
Output: false

Input: Now give it for C[C@@]1(C(=O)Nc2ccc(F)nc2)CCCN1c1nc(Nc2cc(C3CC3)n[nH]2)c2cccn2n1 too.
Output: true

Input: Next molecule: CNC(=O)c1ccccc1Nc1cc(Nc2ccc(N3CCOCC3)cc2OC)ncc1C(F)(F)F
Output: false

Input: What about COc1cc2ncnc(Nc3ccc(F)c(Cl)c3)c2cc1OCCCN1CCOCC1 ?
Output: true
